Biological target: Calcium-activated potassium channel subunit alpha-1 (Homo sapiens) (UniProt Q12791)
Sequence (Q12791 whole entry): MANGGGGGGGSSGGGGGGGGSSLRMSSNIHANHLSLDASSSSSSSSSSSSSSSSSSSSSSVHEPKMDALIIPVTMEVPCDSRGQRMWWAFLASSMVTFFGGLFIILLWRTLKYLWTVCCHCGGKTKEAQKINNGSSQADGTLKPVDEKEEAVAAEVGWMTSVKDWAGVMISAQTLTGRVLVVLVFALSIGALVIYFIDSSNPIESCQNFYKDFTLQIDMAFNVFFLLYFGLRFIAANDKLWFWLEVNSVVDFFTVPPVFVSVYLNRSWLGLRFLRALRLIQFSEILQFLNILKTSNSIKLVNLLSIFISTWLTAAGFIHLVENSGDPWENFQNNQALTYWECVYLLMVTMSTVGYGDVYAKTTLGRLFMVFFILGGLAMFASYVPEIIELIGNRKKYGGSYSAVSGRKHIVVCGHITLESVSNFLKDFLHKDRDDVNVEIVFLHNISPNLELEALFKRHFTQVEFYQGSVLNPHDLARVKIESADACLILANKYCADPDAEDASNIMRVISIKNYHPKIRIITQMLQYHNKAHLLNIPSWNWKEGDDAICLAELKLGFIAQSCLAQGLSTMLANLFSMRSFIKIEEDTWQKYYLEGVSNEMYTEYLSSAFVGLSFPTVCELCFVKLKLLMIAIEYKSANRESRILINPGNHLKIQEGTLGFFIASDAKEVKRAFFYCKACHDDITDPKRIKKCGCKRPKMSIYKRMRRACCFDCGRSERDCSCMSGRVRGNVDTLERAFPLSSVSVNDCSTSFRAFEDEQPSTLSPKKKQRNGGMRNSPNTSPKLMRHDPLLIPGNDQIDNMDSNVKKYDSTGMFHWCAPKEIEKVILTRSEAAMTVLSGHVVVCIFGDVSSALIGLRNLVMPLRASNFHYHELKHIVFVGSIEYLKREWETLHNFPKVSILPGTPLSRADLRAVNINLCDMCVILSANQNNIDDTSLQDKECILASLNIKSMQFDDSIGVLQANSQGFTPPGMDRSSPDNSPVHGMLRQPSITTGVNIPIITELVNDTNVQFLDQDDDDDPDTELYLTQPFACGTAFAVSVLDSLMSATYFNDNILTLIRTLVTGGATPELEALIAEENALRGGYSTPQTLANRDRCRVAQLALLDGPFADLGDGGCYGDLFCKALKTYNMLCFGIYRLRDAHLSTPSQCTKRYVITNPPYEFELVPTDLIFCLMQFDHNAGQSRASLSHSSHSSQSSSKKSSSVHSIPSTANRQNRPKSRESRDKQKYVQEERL
Experiment: Induction of step pulse-induced human BKalpha channel opening activity expressed in CHO-K1 cells at 30 uM by population patch clamp method relative to control
Type: cell-based
endpoint: Activity (%)

INSERT INTO assay_data (smiles_representation, endpoint, u, experimental_result) VALUES
  ('CC(C)c1cc2c(cc1Br)[C@@]1(C)CCC[C@@](C)(C(=O)O)[C@@H]1C/C2=N\OCCNC(=O)c1ccc(C(F)(F)F)cc1', 'Activity', '%', 107),
  ('COc1cccc(C(=O)NCCO/N=C2\C[C@H]3[C@](C)(C(=O)O)CCC[C@]3(C)c3cc(Br)c(C(C)C)cc32)c1', 'Activity', '%', 90.4),
  ('CC(C)c1cc2c(cc1Br)[C@@]1(C)CCC[C@@](C)(C(=O)O)[C@@H]1C/C2=N\OCCNC(=O)c1ccc(Cl)s1', 'Activity', '%', 103),
  ('CC(C)c1cc2c(cc1Br)[C@@]1(C)CCC[C@@](C)(C(=O)O)[C@@H]1C/C2=N\OCCNC(=O)c1ccc[nH]1', 'Activity', '%', 124),
  ('CC(C)C(=O)NCCO/N=C1\C[C@H]2[C@](C)(C(=O)O)CCC[C@]2(C)c2cc(Br)c(C(C)C)cc21', 'Activity', '%', 142);

[1] Cc1ccc(C(=O)NCCO/N=C2\C[C@H]3[C@](C)(C(=O)O)CCC[C@]3(C)c3cc(Br)c(C(C)C)cc32)s1
[2] O=c1[nH]c2cc(C(F)(F)F)ccc2n1-c1cc(C(F)(F)F)ccc1O
Query: Response body: label of entry with the larger Activity; valid values 1 , 2 . Could you answer with the label of the item you picked?
Response: 2

====

Molecular target: Calcium-activated potassium channel subunit alpha-1 (Homo sapiens)
Assay: Induction of step pulse-induced human BKalpha channel opening activity expressed in CHO-K1 cells at 30 uM by population patch clamp method relative to control
Type: cell-based
endpoint: Activity (%)

Before answering, review these 2 worked examples.
INSERT INTO assay_data (smiles_representation, experimental_result) VALUES
  ('CC(C)c1cc2c(cc1Br)[C@@]1(C)CCC[C@@](C)(C(=O)O)[C@@H]1C/C2=N\OCCNC(=O)c1ccco1', 151),
  ('CC(C)c1cc2c(cc1Br)[C@@]1(C)CCC[C@@](C)(C(=O)O)[C@@H]1C/C2=N\OCCNC(=O)c1ccccc1C(F)(F)F', 123);

[P] CC(C)c1cc2c(cc1Br)[C@@]1(C)CCC[C@@](C)(C(=O)O)[C@@H]1C/C2=N\OCCNC(=O)C1CC1
[Q] CC(C)c1cc2c(cc1Br)[C@@]1(C)CCC[C@@](C)(C(=O)O)[C@@H]1C/C2=N\OCCCCCCNC(=O)c1cccs1
Query: Identify the entry with the smaller Activity: P or Q . Indicate your choice by writing its label.
Response: Q

====

Target: Calcium-activated potassium channel subunit alpha-1 (Homo sapiens) (UniProt Q12791)
Assay: Induction of step pulse-induced human BKalpha channel opening activity expressed in CHO-K1 cells at 30 uM by population patch clamp method relative to control
Format: cell-based
endpoint: Activity (%)

Consider the worked cases shown below.
INSERT INTO measurements (smiles_representation, experimental_result) VALUES
  ('COc1ccccc1C(=O)NCCO/N=C1\C[C@H]2[C@](C)(C(=O)O)CCC[C@]2(C)c2cc(Br)c(C(C)C)cc21', 101),
  ('CC(C)c1cc2c(cc1Br)[C@@]1(C)CCC[C@@](C)(C(=O)O)[C@@H]1C/C2=N\OCCNC(=O)c1ccccc1', 121),
  ('CC(C)c1cc2c(cc1Br)[C@@]1(C)CCC[C@@](C)(C(=O)O)[C@@H]1C/C2=N\OCCCNC(=O)c1cccs1', 136);

[P] CCc1ccc(C(=O)NCCO/N=C2\C[C@H]3[C@](C)(C(=O)O)CCC[C@]3(C)c3cc(Br)c(C(C)C)cc32)cc1
[Q] CC(C)c1cc2c(cc1Br)[C@@]1(C)CCC[C@@](C)(C(=O)O)[C@@H]1C/C2=N\OCCCCCNC(=O)c1cccs1
[R] CC(C)c1cc2c(cc1Br)[C@@]1(C)CCC[C@@](C)(C(=O)O)[C@@H]1C/C2=N\OCCNC(=O)c1cccs1
Query: Order by Activity, ascending. To answer, arrange all of the labels according to the requested order.
Response: P, Q, R

====

Biological target: Calcium-activated potassium channel subunit alpha-1 (Homo sapiens) (UniProt Q12791)
Test: Induction of step pulse-induced human BKalpha channel opening activity expressed in CHO-K1 cells at 30 uM by population patch clamp method relative to control
Format: cell-based
endpoint: Activity (%)

// worked examples, Activity included
INSERT INTO assay_data (smiles_representation, target_entity, experimental_result) VALUES
  ('CC(C)c1cc2c(cc1Br)[C@@]1(C)CCC[C@@](C)(C(=O)O)[C@@H]1C/C2=N\OCCN', 'Calcium-activated potassium channel subunit alpha-1 (Homo sapiens) (UniProt Q12791)', 98.6),
  ('CCCCCC(=O)NCCO/N=C1\C[C@H]2[C@](C)(C(=O)O)CCC[C@]2(C)c2cc(Br)c(C(C)C)cc21', 'Calcium-activated potassium channel subunit alpha-1 (Homo sapiens) (UniProt Q12791)', 146),
  ('CC(C)c1cc2c(cc1Br)[C@@]1(C)CCC[C@@](C)(C(=O)O)[C@@H]1C/C2=N\OCCNC(=O)c1c(F)c(F)c(F)c(F)c1F', 'Calcium-activated potassium channel subunit alpha-1 (Homo sapiens) (UniProt Q12791)', 136),
  ('CC(C)c1cc2c(cc1Br)[C@@]1(C)CCC[C@@](C)(C(=O)O)[C@@H]1C/C2=N\OCCNC(=O)c1ccsc1', 'Calcium-activated potassium channel subunit alpha-1 (Homo sapiens) (UniProt Q12791)', 128),
  ('CC(=O)NCCO/N=C1\C[C@H]2[C@](C)(C(=O)O)CCC[C@]2(C)c2cc(Br)c(C(C)C)cc21', 'Calcium-activated potassium channel subunit alpha-1 (Homo sapiens) (UniProt Q12791)', 140);

[a] CC(C)c1cc2c(cc1Br)[C@@]1(C)CCC[C@@](C)(C(=O)O)[C@@H]1C/C2=N\OCCNC(=O)c1ccccn1
[b] CC(C)c1cc2c(cc1Br)[C@@]1(C)CCC[C@@](C)(C(=O)O)[C@@H]1C/C2=N\OCCNC(=O)c1nccs1
Query: Among a and b , which shows a numerically higher Activity result? I would appreciate it if you answered with the label of your choice.
Response: b

====

Biological target: Calcium-activated potassium channel subunit alpha-1 (Homo sapiens) (UniProt Q12791)
Test: Induction of step pulse-induced human BKalpha channel opening activity expressed in CHO-K1 cells at 30 uM by population patch clamp method relative to control
Assay type: cell-based
endpoint: Activity (%)

INSERT INTO results (smiles_representation, u, experimental_result) VALUES
  ('CC(C)c1cc2c(cc1Br)[C@@]1(C)CCC[C@@](C)(C(=O)O)[C@@H]1C/C2=N\OCCNC(=O)c1cc2ccccc2[nH]1', '%', 89),
  ('CC(C)c1cc2c(cc1Br)[C@@]1(C)CCC[C@@](C)(C(=O)O)[C@@H]1C/C2=N\OCCNC(=O)c1cc2ccccc2s1', '%', 85.7),
  ('CC(C)c1cc2c(cc1Br)[C@@]1(C)CCC[C@@](C)(C(=O)O)[C@@H]1C/C2=N\OCCNC(=O)c1cc(Br)cs1', '%', 106),
  ('CC(C)c1ccc2c(c1)/C(=N/OCCNC(=O)c1cccs1)C[C@H]1[C@](C)(C(=O)O)CCC[C@]21C', '%', 106),
  ('CC(C)c1cc2c(cc1Br)[C@@]1(C)CCC[C@@](C)(C(=O)O)[C@@H]1C/C2=N\OCCNC(=O)c1cccc(C(F)(F)F)c1', '%', 113),
  ('COc1ccc(C(=O)NCCO/N=C2\C[C@H]3[C@](C)(C(=O)O)CCC[C@]3(C)c3cc(Br)c(C(C)C)cc32)cc1', '%', 102),
  ('CC(C)c1cc2c(cc1Br)[C@@]1(C)CCC[C@@](C)(C(=O)O)[C@@H]1C/C2=N\OCCNC(=O)c1ccc(Br)s1', '%', 107),
  ('CC(C)c1cc2c(cc1Br)[C@@]1(C)CCC[C@@](C)(C(=O)O)[C@@H]1C/C2=N\OCCNC(=O)c1ccccc1F', '%', 118);

This collection of values is drawn from ChEMBL document CHEMBL3745644.
